- assayed.target: human GIP receptor (bioGIPR) (Homo sapiens)
- Construct: Biotinylate extracellular of the human GIP receptor (bioGIPR, Proteros biostructures GmbH, lot #02/2b); purchased Proteros biostructures GmbH lot #02/2b
- protocol.details: Surface plasmon resonance (SPR) based binding assay
- assay.conditions: SPR dissociation half-life, Single Cycle Kinetic mode, 25° C.
*1 amine or outer side, *2 acyl side, *3 side chain or, on linkers, in order; H or OH if unused. Where a SMILES comes first, the peptide text is derived from it. Bridges are numbered along the chain shown (N, C = ends). [ ]: non-standard residue; d: D form. The star is where a group is joined. NH(CH2)5NHDOTA = O=C(O)CN1CCN(CC(=O)O)CCN(CC(=O)NCCCCCN*)CCN(CC(=O)O)CC1; Trp(5-Cl) = N[C@@H](Cc1c[nH]c2ccc(Cl)cc12)C(=O)O; Pyridine(2,6-diCH2) = c1cc(C[*:1])nc(C[*:2])c1; Hyp = O=C(O)[C@@H]1C[C@@H](O)CN1; Suc = O=C(CCC(=O)[*:2])[*:1]; hSer = N[C@@H](CCO)C(=O)O; Thp = NC1(C(=O)O)CCOCC1
measurement.kind: t1/2 Category

CC[C@H](C)[C@@H]1NC(=O)[C@H](CC(C)C)NC(=O)C2(CCOCC2)NC(=O)[C@@H](NC(=O)[C@@H](CC(C)C)NC(=O)[C@H](CCO)NC(=O)[C@@H]2C[C@@H](O)CN2C(=O)[C@H](Cc2c[nH]c3ccc(Cl)cc23)NC(=O)[C@H](Cc2c[nH]c3ccccc23)NC(=O)[C@H](CC(=O)O)NC(C)=O)CSCc2cccc(n2)CSC[C@@H](C(N)=O)NC1=O [GIP-194] (Ac-DW[Trp(5-Cl)][Hyp][hSer][dL]C[Thp]LIC-NH2; linker 7-11 via Pyridine(2,6-diCH2)) ... A (t1/2 values>15 min)
CC[C@H](C)[C@@H]1NC(=O)[C@H](CC(C)C)NC(=O)C2(CCOCC2)NC(=O)[C@@H](NC(=O)[C@@H](CC(C)C)NC(=O)[C@H](CCC(=O)O)NC(=O)[C@@H]2C[C@@H](O)CN2C(=O)[C@H](Cc2c[nH]c3ccc(Cl)cc23)NC(=O)[C@H](Cc2c[nH]c3ccccc23)NC(=O)CCC(=O)O)CSCc2cccc(n2)CSC[C@@H](C(=O)NCCCCCNC(=O)CN2CCN(CC(=O)O)CCN(CC(=O)O)CCN(CC(=O)O)CC2)NC1=O [GIP-117] (Suc-W[Trp(5-Cl)][Hyp]E[dL]C[Thp]LIC-{NH(CH2)5NHDOTA}; linker 6-10 via Pyridine(2,6-diCH2)) ... A (t1/2 values>15 min)

###

- assayed.target: human GIP receptor (bioGIPR) (Homo sapiens)
- Construct: Biotinylate extracellular of the human GIP receptor (bioGIPR, Proteros biostructures GmbH, lot #02/2b); purchased Proteros biostructures GmbH lot #02/2b
- protocol.details: Surface plasmon resonance (SPR) based binding assay
- assay.conditions: SPR dissociation half-life, Single Cycle Kinetic mode, 25° C.
*1 amine or outer side, *2 acyl side, *3 side chain or, on linkers, in order; H or OH if unused. Where a SMILES comes first, the peptide text is derived from it. Bridges are numbered along the chain shown (N, C = ends). [ ]: non-standard residue; d: D form. Trp(5-Cl) = N[C@@H](Cc1c[nH]c2ccc(Cl)cc12)C(=O)O; Pyridine(2,6-diCH2) = c1cc(C[*:1])nc(C[*:2])c1; Hyp = O=C(O)[C@@H]1C[C@@H](O)CN1; hArg = N=C(N)NCCCC[C@H](N)C(=O)O; hLys = NCCCCC[C@H](N)C(=O)O; Thp = NC1(C(=O)O)CCOCC1
measurement.kind: t1/2 Category

CC[C@H](C)[C@@H]1NC(=O)[C@H](CC(C)C)NC(=O)C2(CCOCC2)NC(=O)[C@@H](NC(=O)[C@@H](CC(C)C)NC(=O)[C@H](CCCCCN)NC(=O)[C@@H]2C[C@@H](O)CN2C(=O)[C@H](Cc2c[nH]c3ccc(Cl)cc23)NC(=O)[C@H](Cc2c[nH]c3ccccc23)NC(=O)[C@H](CC(=O)O)NC(C)=O)CSCc2cccc(n2)CSC[C@@H](C(N)=O)NC1=O [GIP-378] (Ac-DW[Trp(5-Cl)][Hyp][hLys][dL]C[Thp]LIC-NH2; linker 7-11 via Pyridine(2,6-diCH2)) ... A (t1/2 values>15 min)
CC[C@H](C)[C@@H]1NC(=O)[C@H](CC(C)C)NC(=O)C2(CCOCC2)NC(=O)[C@@H](NC(=O)[C@@H](CC(C)C)NC(=O)[C@H](CCCCNC(=N)N)NC(=O)[C@@H]2C[C@@H](O)CN2C(=O)[C@H](Cc2c[nH]c3ccc(Cl)cc23)NC(=O)[C@H](Cc2c[nH]c3ccccc23)NC(=O)[C@H](CC(=O)O)NC(C)=O)CSCc2cccc(n2)CSC[C@@H](C(N)=O)NC1=O [GIP-395] (Ac-DW[Trp(5-Cl)][Hyp][hArg][dL]C[Thp]LIC-NH2; linker 7-11 via Pyridine(2,6-diCH2)) ... A (t1/2 values>15 min)

###

- assayed.target: GIPR (CHO-K1-hGIPR cells) (Homo sapiens, UniProt P48546)
- Construct: host or cells: CHO-K1
- Sequence (P48546 22-466): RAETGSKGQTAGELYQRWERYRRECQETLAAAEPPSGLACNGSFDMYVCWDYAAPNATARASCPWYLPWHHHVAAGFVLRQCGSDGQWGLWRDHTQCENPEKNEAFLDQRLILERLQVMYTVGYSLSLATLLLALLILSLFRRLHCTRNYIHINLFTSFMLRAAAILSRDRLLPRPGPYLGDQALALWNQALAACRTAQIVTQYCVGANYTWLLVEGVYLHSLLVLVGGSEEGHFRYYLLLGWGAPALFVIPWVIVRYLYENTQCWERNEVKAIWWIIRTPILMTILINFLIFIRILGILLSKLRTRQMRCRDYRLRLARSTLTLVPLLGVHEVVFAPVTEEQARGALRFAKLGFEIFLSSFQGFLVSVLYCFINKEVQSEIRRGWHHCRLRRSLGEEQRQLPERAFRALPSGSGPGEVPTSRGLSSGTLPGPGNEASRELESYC
- protocol.details: FACS binding assay
- assay.conditions: competition with 20 nM GIP-057, 4° C., 1 hour, read-out: pIC50 Category (converted)
*1 amine or outer side, *2 acyl side, *3 side chain or, on linkers, in order; H or OH if unused. Where a SMILES comes first, the peptide text is derived from it. Bridges are numbered along the chain shown (N, C = ends). [ ]: non-standard residue; d: D form. The star is where a group is joined. X3 = O=C(O)CN1CCN(CC(=O)O)CCN(CC(=O)NCCCOCCOCCOCCCN*)CCN(CC(=O)O)CC1; Phe(3,4-Cl2) = N[C@@H](Cc1ccc(Cl)c(Cl)c1)C(=O)O; Pyridine(2,6-diCH2) = c1cc(C[*:1])nc(C[*:2])c1; X7 = c1cc(CSCCN[*:2])cc(C[*:1])c1; Hyp = O=C(O)[C@@H]1C[C@@H](O)CN1; NMeD = CN[C@@H](CC(=O)O)C(=O)O; Suc = O=C(CCC(=O)[*:2])[*:1]; Thp = NC1(C(=O)O)CCOCC1; Aib = CC(C)(N)C(=O)O
measurement.kind: IC50

CC[C@H](C)[C@@H]1NC(=O)[C@H](CC(C)C)NC(=O)C(C)(C)NC(=O)[C@@H](NC(=O)[C@H](CC(C)C)NC(=O)[C@H](CCC(=O)O)NC(=O)[C@@H]2CCCN2C(=O)[C@H](Cc2c[nH]c3ccccc23)NC(=O)[C@H](Cc2c[nH]c3ccccc23)NC(=O)[C@H](CC(=O)O)N(C)C(=O)CCC(=O)NCCCOCCOCCOCCCNC(=O)CN2CCN(CC(=O)O)CCN(CC(=O)O)CCN(CC(=O)O)CC2)CSCc2cccc(c2)CSCCNC1=O [GIP-130] ({X3-Suc}-[NMeD]WWPELC[Aib]LI; linker 7-C via X7) ... 10 to 79.4 nM
CC[C@H](C)[C@@H]1NC(=O)[C@H](CC(C)C)NC(=O)C2(CCOCC2)NC(=O)[C@@H](NC(=O)[C@@H](CC(C)C)NC(=O)[C@H](CCC(=O)O)NC(=O)[C@@H]2C[C@@H](O)CN2C(=O)[C@H](Cc2ccc(Cl)c(Cl)c2)NC(=O)[C@H](Cc2c[nH]c3ccccc23)NC(=O)[C@H](CC(=O)O)NC(C)=O)CSCc2cccc(n2)CSC[C@@H](C(N)=O)NC1=O [GIP-213] (Ac-DW[Phe(3,4-Cl2)][Hyp]E[dL]C[Thp]LIC-NH2; linker 7-11 via Pyridine(2,6-diCH2)) ... < 10 nM

Attribution: patent US20250296971A1
